Test: AUC (0 to infinity) in CD-1 mouse at 3 mg/kg, iv measured 0.083 to 24 hrs post-treatment by LC-MS/MS analysis
Format: ADME, organism-based
Parameters: time upper 24 hrs, time lower 0.083 hrs, dose 3 mg/kg, route iv
Settings: CD-1, mouse, in vivo
Listing: AUC(0-inf) of selected molecules
Number only, in ng·h/mL; omit the unit.

Examples with their reported AUC(0-inf) follow.
CCn1cc(-c2cc(Cn3ccnc3C)cc3c2CCN([C@@H](C)c2cc(OC)ccn2)C3=O)c(C(F)(F)F)n1 (stereo in doubt; 38)
707
CCn1cc(-c2cc(Cn3ccnc3)cc3c2CCN([C@@H](c2cc(OC)ccn2)C2CC2)C3=O)c(C(F)(F)F)n1
1950

// query AUC(0-inf) value for entry `CCn1cc(-c2cc(Cn3ccnc3C)cc3c2CCN([C@@H](c2cc(OC)ccn2)C2CC2)C3=O)c(C(F)(F)F)n1` 1240

---

Test: Metabolic stability of compound in rat liver microsome assessed as intrinsic clearance at 1 uM measured upto 45 mins by LCMS analysis
Format: ADME, microsomes
Conditions: liver microsomes, read-out: CLH
result-type: microsomal CLint at 1 µM (µL/min/mg)
Number only, in µL/min/mg; omit the unit.

// query microsomal CLint at 1 µM value for entry CCn1cc(-c2cc(Cn3ccnc3C)cc3c2CCN([C@@H](C)c2cc(OC)ccn2)C3=O)c(C(F)(F)F)n1 (stereo in doubt; 38) 31

---

Assay: Volume of distribution at steady state in CD-1 mouse at 3 mg/kg, iv measured 0.083 to 24 hrs post-treatment by LC-MS/MS analysis
Assay type: ADME, organism-based
Details: CD-1, mouse, in vivo, time 0.083-24 hrs, read-out: Vdss
result-type: Vd (L/kg)
Number only, in L/kg; omit the unit.

Examples with their reported Vd follow.
CCn1cc(-c2cc(Cn3ccnc3C)cc3c2CCN([C@@H](c2cc(OC)ccn2)C2CC2)C3=O)c(C(F)(F)F)n1
1.6
CCn1cc(-c2cc(Cn3ccnc3C)cc3c2CCN([C@@H](C)c2cc(OC)ccn2)C3=O)c(C(F)(F)F)n1 (stereo in doubt; 38)
2.3

Now examine the next entry.
// query Vd value for entry `CCn1cc(-c2cc(Cn3ccnc3)cc3c2CCN([C@@H](c2cc(OC)ccn2)C2CC2)C3=O)c(C(F)(F)F)n1` 1.6

---

Listing: pKi of selected compounds
Biological target: WD repeat-containing protein 5 (Homo sapiens)
Assay: Competitive binding affinity to N-terminal 6xHis-SUMO-tagged human WDR5 (22 to 334 residues) expressed in Escherichia coli BL21-Gold (DE3) cells assessed as inhibition constant using 10-mer-Thr-FAM peptide as substrate incubated for 1 hr by Lantha Screen based TR-FRET assay
The read-out pKi is expressed as -log10 of concentration in moles per litre.

Examples with their reported pKi follow.
COc1cc(CN2CCc3c(cc(Cn4ccn(C)c4=N)cc3-c3cc(C)nn3C)C2=O)cc(OC)c1
10.60
Cc1cccnc1CN1CCc2c(cc(Cn3ccnc3C)cc2-c2cn(C)nc2C(F)(F)F)C1=O
9.23
Cc1cc(CN2CCc3c(cc(Cn4ccnc4C)cc3-c3cn(C)nc3C(F)(F)F)C2=O)ccn1
10.19
COc1cc(CN2CCc3c(cc(Cn4ccnc4C(C)C)cc3-c3cn(C)nc3C(F)(F)F)C2=O)cc(OC)c1
8.47
COc1cc(CN2CCc3c(cc(Cn4ccn(C)c4=N)cc3-c3ccc(F)cc3O)C2=O)cc(OC)c1
10.46

Now examine the next entry.
// query pKi value for entry `CCn1cc(-c2cc(Cn3ccnc3)cc3c2CCN([C@H](C)c2cc(OC)ccn2)C3=O)c(C(F)(F)F)n1` 10.55

Reference source: ChEMBL document CHEMBL5154875
